Tested on: K562 CRISPRi cells
EXPERIMENTAL DETAILS: Perturb-seq pooled growth measurement (sgRNA counts, growth phenotype γ, relative activity)
Format: cell-based, human
ASSAY SETUP: γ relative to perfectly matched sgRNA (_00) of the same gene, day 5
Please use True for relative_activity_day5 under 0.8 and False for everything else, ties included.

Q: hey, is relative_activity_day5 for GINS1_ −_25388381.23-P1P2_03 (guide GGACTATAACGAAAGGAGTG; listed as DNA, chemistry not fully specified) lower than 0.8 or not?
Result: True

Q: hey, is relative_activity_day5 for EIF2S1_ −_67827080.23-P1P2_07 (guide GAGCGAAGCGCTCGCTGAGG; listed as DNA, chemistry not fully specified) lower than 0.8 or not?
Result: True

Q: hey, is relative_activity_day5 for RPL9_ + _39460483.23-P1P2_07 (guide GGATGTTTCTGCGCTCGTGG; listed as DNA, chemistry not fully specified) lower than 0.8 or not?
Result: True

Q: hey, is relative_activity_day5 for RPL9_ + _39460483.23-P1P2_04 (guide GGATGTTTCAGTGCTCGTGG; listed as DNA, chemistry not fully specified) lower than 0.8 or not?
Result: True

Q: hey, is relative_activity_day5 for RPS15_ −_1438413.23-P1P2_07 (guide GACCAAAGCGGTCTCTTCTG; listed as DNA, chemistry not fully specified) lower than 0.8 or not?
Result: False

Q: hey, is relative_activity_day5 for DUT_ + _48624411.23-P1P2_08 (guide GCGAGCGAGGAGGCCACCGG; listed as DNA, chemistry not fully specified) lower than 0.8 or not?
Result: False

Q: hey, is relative_activity_day5 for SEC61A1_ −_127771295.23-P1_03 (guide GGTACTGACGTGTCTCTCGG; listed as DNA, chemistry not fully specified) lower than 0.8 or not?
Result: True

Q: hey, is relative_activity_day5 for RPS14_ + _149829238.23-P1P2_04 (guide GAGGCCCGCGCGCGACAATC; listed as DNA, chemistry not fully specified) lower than 0.8 or not?
Result: True

Q: hey, is relative_activity_day5 for RPS14_ + _149829238.23-P1P2_02 (guide GAGGCCCTGGCGCGACAATC; listed as DNA, chemistry not fully specified) lower than 0.8 or not?
Result: True

Q: hey, is relative_activity_day5 for DBR1_ + _137893744.23-P1P2_00 (guide GTTTGCAGGAGTCTACACCC; listed as DNA, chemistry not fully specified) lower than 0.8 or not?
Result: False

Q: hey, is relative_activity_day5 for RAN_ + _131356438.23-P1P2_04 (guide GGCGGTCGCGGCGCTTAGGG; listed as DNA, chemistry not fully specified) lower than 0.8 or not?
Result: True

Q: hey, is relative_activity_day5 for POLR1D_ + _28196016.23-P1_08 (guide GGGAAGCAGGGACCGACCGA; listed as DNA, chemistry not fully specified) lower than 0.8 or not?
Result: False

Q: hey, is relative_activity_day5 for CAD_ + _27440280.23-P1P2_06 (guide GGCTGGAGAGTAGCCGGGCG; listed as DNA, chemistry not fully specified) lower than 0.8 or not?
Result: True

Q: hey, is relative_activity_day5 for CDC23_ −_137548987.23-P1P2_11 (guide GACAGCCACCGGGACCACGG; listed as DNA, chemistry not fully specified) lower than 0.8 or not?
Result: True

Q: hey, is relative_activity_day5 for DUT_ + _48624411.23-P1P2_07 (guide GCGAGCGAGGAGCCCACCGG; listed as DNA, chemistry not fully specified) lower than 0.8 or not?
Result: False

Q: hey, is relative_activity_day5 for BCR_ + _23523092.23-P1P2_00 (guide GCGCGCGGGGCCCGTCTCAG; listed as DNA, chemistry not fully specified) lower than 0.8 or not?
Result: False

Q: hey, is relative_activity_day5 for BCR_ + _23523092.23-P1P2_07 (guide GCGCGCGGGGCTCGTCTCAG; listed as DNA, chemistry not fully specified) lower than 0.8 or not?
Result: False

Q: hey, is relative_activity_day5 for DBR1_ + _137893744.23-P1P2_08 (guide GTTTGCAGTAGTCTACACCC; listed as DNA, chemistry not fully specified) lower than 0.8 or not?
Result: True

Q: hey, is relative_activity_day5 for GINS1_ −_25388381.23-P1P2_08 (guide GGACTAGAGCGAAAGGAGTG; listed as DNA, chemistry not fully specified) lower than 0.8 or not?
Result: False

Q: hey, is relative_activity_day5 for BCR_ + _23523092.23-P1P2_04 (guide GCGCGCGGAGCCCGTCTCAG; listed as DNA, chemistry not fully specified) lower than 0.8 or not?
Result: False

Q: hey, is relative_activity_day5 for SEC61A1_ −_127771295.23-P1_04 (guide GGCACTGAAGTGTCTCTCGG; listed as DNA, chemistry not fully specified) lower than 0.8 or not?
Result: True

Q: hey, is relative_activity_day5 for MTOR_ + _11322547.23-P1P2_05 (guide GGGCAGGGGGCTTGAAGCGG; listed as DNA, chemistry not fully specified) lower than 0.8 or not?
Result: True

Provenance of the data: patent US20220259593A1
